# Tested on: Fibroblast
# procedure-text: Multiplex assay against human fibroblast
# Format: toxicity, cell-based
# condition: 12 h, 10 µM, compound concentration 10 uM, replicate 1
Returns: string. Value is Criterion met if measured Population Pyknosed Nuclei (%) is below 40%, and Criterion not met if it is greater than or equal to it.

Some solved entries appear below for comparison.
Req: In plain terms, does CC(C)(O)CNc1ncc(-c2ccnc(Nc3ccnc(Cl)c3)n2)c(CC2CC2)n1 come in under 40% for Population Pyknosed Nuclei (%)?
Resp: Criterion not met

Req: In plain terms, does c1cn2cc(-c3ccc4cn[nH]c4c3)nc(Nc3ccc(N4CCOCC4)cc3)c2n1 come in under 40% for Population Pyknosed Nuclei (%)?
Resp: Criterion not met

Req: In plain terms, does C=CC(=O)Nc1cc2c(Nc3ccc(F)c(Cl)c3)ncnc2cc1OCCCN1CCOCC1.Cl.Cl [CANERTINIB DIHYDROCHLORIDE] come in under 40% for Population Pyknosed Nuclei (%)?
Resp: Criterion met

Req: In plain terms, does Cc1c(-c2ccc(O)cc2)n(Cc2ccc(OCCN3CCCCCC3)cc2)c2ccc(O)cc12 come in under 40% for Population Pyknosed Nuclei (%)?
Resp: Criterion met

Req: In plain terms, does CN(C)c1ncnc(-c2ccc3nc(Nc4cc(CN5CCN(C(=O)CC(F)(F)F)CC5)ccn4)[nH]c3c2)c1Cl come in under 40% for Population Pyknosed Nuclei (%)?
Resp: Criterion met

Req: In plain terms, does CCN(CC)CCCCNc1ncc2cc(-c3cc(OC)cc(OC)c3)c(NC(=O)NC(C)(C)C)nc2n1 come in under 40% for Population Pyknosed Nuclei (%)?
Resp: Criterion met

Req: In plain terms, does Cl.N#Cc1ccc2[nH]cc(CCCCN3CCN(c4ccc5oc(C(N)=O)cc5c4)CC3)c2c1 [VILAZODONE HYDROCHLORIDE] come in under 40% for Population Pyknosed Nuclei (%)?
Resp: Criterion not met

Switching to the query record.
Req: In plain terms, does CN1CCN(c2ccc(OC(F)(F)F)c(Nc3ncc4c(n3)-c3c(c(C(N)=O)nn3CCO)CC4)c2)CC1 come in under 40% for Population Pyknosed Nuclei (%)?
Resp: Criterion met

====

# System: Fibroblast
# procedure-text: Multiplex assay against human fibroblast
# Assay type: toxicity, cell-based
# condition: 48 h, 10 µM, compound concentration 10 uM, replicate 2
Binary classification by Population Normal (%), with 80% as an inclusive lower bound for Y; all other cases are N.

Req: Given COc1cccc([C@@H](C)NCCCc2ccccc2Cl)c1.Cl [TECALCET HYDROCHLORIDE] , state whether its Population Normal (%) is at least 80%.
Resp: Y

Req: Given C=CC(=O)Nc1cccc(C(=O)Nc2ccc(Nc3cc(-c4[nH]c(SC)nc4C)ccn3)cc2)c1 , state whether its Population Normal (%) is at least 80%.
Resp: Y

Req: Given Cc1csc2c(N[C@@H](C)CN3CCN(S(=O)(=O)c4ccc(Cl)c(Cl)c4)CC3)ncnc12 , state whether its Population Normal (%) is at least 80%.
Resp: N

Req: Given CCOCCn1cc(C(=O)Nc2ccc(-n3nc(-c4cccnc4)cc3C(F)(F)F)cn2)ccc1=O , state whether its Population Normal (%) is at least 80%.
Resp: Y

Req: Given COc1ncc(-c2ccc3nccc(-c4ccnnc4)c3c2)cc1NS(=O)(=O)c1ccc(F)cc1F , state whether its Population Normal (%) is at least 80%.
Resp: Y

Req: Given Cc1c(-c2ccc(O)cc2)n(Cc2ccc(OCCN3CCCCCC3)cc2)c2ccc(O)cc12 , state whether its Population Normal (%) is at least 80%.
Resp: N

Req: Given CC[C@H](C)C(=O)O[C@H]1C[C@@H](C)C=C2C=C[C@H](C)[C@H](CC[C@@H]3C[C@@H](O)CC(=O)O3)[C@H]21 , state whether its Population Normal (%) is at least 80%.
Resp: Y

Req: Given Cl.N#Cc1ccc2[nH]cc(CCCCN3CCN(c4ccc5oc(C(N)=O)cc5c4)CC3)c2c1 [VILAZODONE HYDROCHLORIDE] , state whether its Population Normal (%) is at least 80%.
Resp: N

Req: Given c1cn2cc(-c3ccc4cn[nH]c4c3)nc(Nc3ccc(N4CCOCC4)cc3)c2n1 , state whether its Population Normal (%) is at least 80%.
Resp: N

Req: Given CC(C)(O)CNc1ncc(-c2ccnc(Nc3ccnc(Cl)c3)n2)c(CC2CC2)n1 , state whether its Population Normal (%) is at least 80%.
Resp: Y

Req: Given CCn1c(=O)c(-c2ccc(Cl)cc2Cl)cc2cnc(Nc3ccc(N4CCNCC4)c(F)c3)nc21 , state whether its Population Normal (%) is at least 80%.
Resp: N

====

Entries and their measured Population Healthy Nuclei (%) follow.
# Tested on: U2OS
# procedure-text: Multiplex assay against U2OS
# Assay type: toxicity, cell-based
# condition: human, 48 h, 1 µM, compound concentration 1 uM, replicate 2
Give the value in % but do not write % after it.

Observe how each entry below is paired with its result.
Req: Consider the molecule Cl.N#Cc1ccc2[nH]cc(CCCCN3CCN(c4ccc5oc(C(N)=O)cc5c4)CC3)c2c1 [VILAZODONE HYDROCHLORIDE] and give its measured Population Healthy Nuclei (%).
Resp: 82

Req: Consider the molecule Cc1nc(-c2ccc(-c3ccc(C(=O)N4CCc5cc6c(cc54)C4(CCN(C)CC4)CO6)cc3)c(C)c2)no1 and give its measured Population Healthy Nuclei (%).
Resp: 80

Req: Consider the molecule C[C@@H](NCCCc1cccc(C(F)(F)F)c1)c1cccc2ccccc12.Cl [CINACALCET HYDROCHLORIDE] and give its measured Population Healthy Nuclei (%).
Resp: 70

Req: Consider the molecule CN1CCN(CCOc2cc(OC3CCOCC3)c3c(Nc4c(Cl)ccc5c4OCO5)ncnc3c2)CC1 and give its measured Population Healthy Nuclei (%).
Resp: 73

Req: Consider the molecule CC[C@H](C)C(=O)O[C@H]1C[C@@H](C)C=C2C=C[C@H](C)[C@H](CC[C@@H]3C[C@@H](O)CC(=O)O3)[C@H]21 and give its measured Population Healthy Nuclei (%).
Resp: 87

Req: Consider the molecule Cc1cc(C)cc(-c2cnc3cc(Cl)c(-c4cccc(O)c4)cc3c2OCCCN)c1 and give its measured Population Healthy Nuclei (%).
Resp: 73

Req: Consider the molecule O=C1NCN(c2ccccc2)C12CCN(CCCOc1ccc(F)cc1)CC2 [SPIRAMIDE] and give its measured Population Healthy Nuclei (%).
Resp: 84

API: the following record is the query input.
Req: Consider the molecule CN(C)C(=O)/C(C#N)=C/c1ccc(-c2nc3cnc4[nH]ccc4c3n2C2CCCCC2)o1 and give its measured Population Healthy Nuclei (%).
Resp: 90

====

# Test system: U2OS
# procedure-text: Multiplex assay against U2OS
# Format: toxicity, cell-based
# condition: human, 12 h, 10 µM, compound concentration 10 uM, replicate 2
Entries and their measured Population Mitochondria Different-Phenotype (%) follow.
Give the value in % but do not write % after it.

Observe how each entry below is paired with its result.
Req: Consider the compound CCN(CC)CCCCNc1ncc2cc(-c3cc(OC)cc(OC)c3)c(NC(=O)NC(C)(C)C)nc2n1 and give its measured Population Mitochondria Different-Phenotype (%).
Resp: 51

Req: Consider the compound C=CC(=O)Nc1cccc(C(=O)Nc2ccc(Nc3cc(-c4[nH]c(SC)nc4C)ccn3)cc2)c1 and give its measured Population Mitochondria Different-Phenotype (%).
Resp: 12

Req: Consider the compound CN1CCCC(n2nc(Cc3ccc(Cl)cc3)c3ccccc3c2=O)CC1.Cl (configuration not stated) [AZELASTINE HYDROCHLORIDE] and give its measured Population Mitochondria Different-Phenotype (%).
Resp: 98

Req: Consider the compound COc1cc2nccc(Oc3ccc(NC(=O)Nc4cc(C)on4)c(Cl)c3)c2cc1OC.O and give its measured Population Mitochondria Different-Phenotype (%).
Resp: 97

Req: Consider the compound OC1(c2ccc(Cl)cc2)CCN(Cc2c[nH]c3ccccc23)CC1 and give its measured Population Mitochondria Different-Phenotype (%).
Resp: 95

Req: Consider the compound COc1cc(-n2cnc3cc(-c4ccc(Cl)cc4)sc3c2=O)ccc1OCCN1CCCC1 and give its measured Population Mitochondria Different-Phenotype (%).
Resp: 93

API: the following record is the query input.
Req: Consider the compound Cc1nc(Nc2n[nH]c3c2CN(C(=O)N[C@H](CN(C)C)c2ccccc2)C3(C)C)c2sccc2n1 and give its measured Population Mitochondria Different-Phenotype (%).
Resp: 59

====

# Test system: U2OS
# procedure-text: Multiplex assay against U2OS
# Format: toxicity, cell-based
# condition: human, 12 h, 1 µM, compound concentration 1 uM, replicate 1
Entries and their measured Population Hoechst High Intensity Objects (%) follow.
Give the value in % but do not write % after it.

Observe how each entry below is paired with its result.
Req: Request: Population Hoechst High Intensity Objects (%), test system U2OS, entry CN(C)CC#Cc1ccc(OCCCc2sc(N3CCc4cccc(C(=O)Nc5nc6ccccc6s5)c4C3)nc2C(=O)O)c(F)c1
Resp: 12

Req: Request: Population Hoechst High Intensity Objects (%), test system U2OS, entry Cc1cc(C)cc(-c2cnc3cc(Cl)c(-c4cccc(O)c4)cc3c2OCCCN)c1
Resp: 6

Req: Request: Population Hoechst High Intensity Objects (%), test system U2OS, entry CC(C)(O)CNc1ncc(-c2ccnc(Nc3ccnc(Cl)c3)n2)c(CC2CC2)n1
Resp: 3

Continuing:
Req: Request: Population Hoechst High Intensity Objects (%), test system U2OS, entry Cc1nc(-c2ccc(-c3ccc(C(=O)N4CCc5cc6c(cc54)C4(CCN(C)CC4)CO6)cc3)c(C)c2)no1
Resp: 8

Req: Request: Population Hoechst High Intensity Objects (%), test system U2OS, entry Cc1csc2c(N[C@@H](C)CN3CCN(S(=O)(=O)c4ccc(Cl)c(Cl)c4)CC3)ncnc12
Resp: 8

Req: Request: Population Hoechst High Intensity Objects (%), test system U2OS, entry CN1CCN(CCOc2cc(OC3CCOCC3)c3c(Nc4c(Cl)ccc5c4OCO5)ncnc3c2)CC1
Resp: 5

Req: Request: Population Hoechst High Intensity Objects (%), test system U2OS, entry Cc1c(-c2ccc(O)cc2)n(Cc2ccc(OCCN3CCCCCC3)cc2)c2ccc(O)cc12
Resp: 15

Req: Request: Population Hoechst High Intensity Objects (%), test system U2OS, entry Cc1nc(Nc2n[nH]c3c2CN(C(=O)N[C@H](CN(C)C)c2ccccc2)C3(C)C)c2sccc2n1
Resp: 2
